Experiment: folding stability dG unfold from trypsin proteolysis; higher = more stable
For each entry below, report its folding stability dG unfold value.
Quick note: give the figure in kcal/mol, leave out the unit.

Need folding stability dG unfold of SAGGSAGGSAKIIIIEEDPEEAIRRVEELFGPGARIEPVRVVRVGDKVYVAVGIDIPASLASAGGSAGGSAG [r3_87_TrMRF] , thanks.
1.09

Need folding stability dG unfold of SAGGSAGGSWMYKKNPDGKLEPLPPIRPVPIKIPVPINGRWIPVPIWMTVADIDYIIKEFLKNSAGGSAGGS [r20_148_TrROS] , thanks.
1.48

Need folding stability dG unfold of SAGGEPMKIRIEIYRMKRKKDPKDGKEKWDMRPVPEYEIPFPPGETLLDILDKLPLPPGYMIKRISIESAGG [r13_716_TrROS] , thanks.
2.28

Need folding stability dG unfold of SAGGKVREIDFPMDPGELRDAIDELKREGYMVMIEMPNGQERTIDPNLEDLPPGMPFEIYVMPPKDGSAGGS [r16_31_TrROS] , thanks.
-0.212

Need folding stability dG unfold of SAGGSAGGSPDEGDPVKITILIMIMIPNENGEPYFIFIRVEITIDPKDNKIQITKIDEIYIFPSAGGSAGGS [r12_358_TrROS] , thanks.
3.74

Need folding stability dG unfold of SAGGKTIMIMFTPDNAEEIAETIVDEFGYDVKIEKVQPMPMKDPDGKQKAPYYMIEIEIKVPDPGQPLSAGG [r13_943_TrROS] , thanks.
0.945

Need folding stability dG unfold of SAGGSITLEIELPNGAKITVTIEYDEETGTVTIEAEITLPNGTVIRIKATINKDGTITIEKIEVFKPSAGGS [r16_213_TrROS_Hall] , thanks.
4.82
